- target_or_system: T1, human MSLN-R1-his protein (human, UniProt Q13421 296-390)
- T1 construct: Self-made in HEK293E cells; also called human MSLN-R1 protein; hMSLN-R1-his; not shown: His tag
- T1 chain: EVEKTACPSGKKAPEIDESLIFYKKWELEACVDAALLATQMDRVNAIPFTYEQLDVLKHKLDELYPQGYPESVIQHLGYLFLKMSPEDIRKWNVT
- protocol_details: ELISA on coated antigen, antibody 100 nM
assay_metric: OD450 (OD450)
Kindly answer with a numeric value in OD450, unit omitted.

# OD450 of S009-F3.45.21 (antibody, human IgG1, kappa, V domains shown, Human-murine chimeric antibody: murine VH/VL on human IgG1 heavy and kappa light constant regions) VH: DVQLQESGPGLVKPSQSLSLTCSVTGDSITSGYYWNWIRQFPGNKLEWMGFIRFDGTNNYNPSLKNRISITRDTSKNQFFLKLNSVTTEDTATYYCAREGSYAPAWFAYWGQGTLVTVSA VL: QIVLTQSPAIMSASPGEKVTMTCSASSSLSYMYWYQQKPGSSPRLLIYDTSNLASGVPVRFSGSGSGTSYSLTISRMEAEDAATYYCQQWSSYPPTFGGGTKLEIKR = 0.65

# OD450 of S009-F3.38.10 (antibody, human IgG1, kappa, V domains shown, Human-murine chimeric antibody: murine VH/VL on human IgG1 heavy and kappa light constant regions) VH: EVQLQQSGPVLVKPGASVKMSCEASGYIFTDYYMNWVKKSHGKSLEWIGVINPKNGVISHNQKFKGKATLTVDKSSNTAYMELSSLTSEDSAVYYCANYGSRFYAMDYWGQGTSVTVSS VL: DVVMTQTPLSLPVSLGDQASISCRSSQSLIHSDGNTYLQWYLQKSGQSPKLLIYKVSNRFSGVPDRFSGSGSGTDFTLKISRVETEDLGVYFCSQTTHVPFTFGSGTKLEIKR = 0.11

# OD450 of S009-F3.74.20 (antibody, human IgG1, kappa, V domains shown, Human-murine chimeric antibody: murine VH/VL on human IgG1 heavy and kappa light constant regions) VH: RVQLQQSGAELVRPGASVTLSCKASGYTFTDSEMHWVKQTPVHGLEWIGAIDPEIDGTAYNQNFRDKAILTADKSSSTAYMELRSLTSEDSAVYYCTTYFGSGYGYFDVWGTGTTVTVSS VL: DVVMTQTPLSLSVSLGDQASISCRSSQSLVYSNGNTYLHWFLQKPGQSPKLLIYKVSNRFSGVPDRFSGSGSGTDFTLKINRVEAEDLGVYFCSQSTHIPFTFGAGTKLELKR = 0.11
